Test system: MS2 coat protein
test_protocol: apparent KD of MS2 coat protein; higher = weaker reporter binding
condition_summary: Eterna round: R107; input ligand: none
List of apparent KD of MS2 coat protein values.

residues	apparent KD of MS2 coat protein (nM)
UUGUUGUUUGGAAGGAGCGUGUAAGAUUAAGAACAUGAGGAUCACCCAUGUUGUAAGGUAGCACAGGUAGGUCGCCGGGUGGUGG [11.T]	14.4
UGCAUGAUCUGAAGGAGCGUGUAUGAUGAUAACAUGAGGAUCACCCAUGUCGAGACGGUAACACAGGUAGGUCGCAGAUCAUGCU [Arg B SS t4]	23.2
CCAUAGGGUAAAUACAUAAUCAUAUCUGAAGGAGCGUGGAUAAACACAGGUAGGUCGCAGAAUCACAUGAGGAUCACCCAUGUCU [Same State Arginine A GF11]	36.1
AAAAGUGGGUCAAUUAUUUAAACUUCAGAAGGAGCGUGAUGUUUCACAGGUAGGUCGCUGAUAACAUGAGGAUCACCCAUGUAUU [JR_ExcArginiA_Sub007]	47.4
AGUACAUGAGGAUCACCCAUGUACCAUGAUACCAGACAUGAAAAUGUCCCUUGGCAGCGUGGGUGAGGCAUCCGAAAGGAUGCCC [#05 SameState-TheophyllineA]	223
CUCAUCCACGCGGCCGCCACUAUAUUGUGGUGUGAAUGUGACGUAUUACAAGAGGAUCACCCUUGUAGGACCGGGCGUGGAUGAG [Tryp B Ex Mod1]	20.3
GGGCCCGGGCGCGAGCCCGGGCCCAUUGAUACCAGUGAGAGAGAGCGCCCUUGGCAGCGAAUCCUAACAUGAGGAUCACCCAUGU [5.N]	51.6
AUACAUGAGGAUCACCCAUGUCAUACAGAAGGAGCGUCAUAUUAGACAGGUAGGUCGCUGUAAUUUUUAUUAUUCUUUAUGUAUU [JR_Nu_ExcArginiA_Sub026]	26
AAUAUAUAUCACGAACUGUGGUGUAUGUUGCGAGGACCGGUACGGCCGCCACUCGGCCGGUGGUACAUGAGGAUCACCCAUGUUG [XTryp A #9]	25.3
AGGAAAACAUGAGCAAAGCUCAUGUGCGAAGGAGCGGCGGAAACGCCAGGUAGGUCGCGCACAUGAGCAUCAGCCAUGUGUAUCA [Omei Arginine B SS A v4]	42.3
UCGCCCGGGUCGGCCGCCACUGAGGUAAUAUGACAUGAGGAUCACCCAUGUUGUCAUGUGGAACAUAGGACCGGGACCCGGGCGA [Exclusion - Tryptophan B Attempt #1 (HarryS)]	8.61
UGUAUAUACGGAAGGAGCGUGUAAGAUUAAGAACAUGAGGAUCACCCAUGUUUUAAGGGAACACAGGUAGGUCGCCGUAUAUAUG [11.O]	12.4

----------
Test system: MS2 coat protein
test_protocol: apparent KD of MS2 coat protein; higher = weaker reporter binding
condition_summary: Eterna round: R107; input ligand: tryptophan 2.4 mM
Where apparent KD of MS2 coat protein equals or exceeds 30 nM, the correct label is true; where it does not, the label is false.

residues	group
GCAUGUGGAGUCUUACUAGAGAGGACAGAUACCAGUAAGAUGUGAUACCCUUGGCAGCUGCGAUUUACAUGAGGAUCACCCAUGU [X-TheoA-ms2@67]	false
GGUAUGUAUUCGGAAACGAAUGCAUACCAUCGAGGACCGGUACGGCCGCCACUCGUGGCUGAUCAACAUGAGGAUCACCCAUGUA [Ex Tryptophan A 1]	true
AUACAUGAGGAUCACCCAUGUCAUACAGAAGGAGCGUCAUAUUAGACAGGUAGGUCGCUGUAAUUUUUAUUAUUCUUUAUGUAUU [JR_Nu_ExcArginiA_Sub026]	false
ACACGAAGCUGAAGGAGCGUGGUAUAAAUUUUUACAUGAGGAUCACCCAUGUUUCAUCAAUCACAGGUAGGUCGCAGAUGCGUGA [JR_SSArginiB_Sub014]	false
ACAUGAGGAUCACCCAUGUAUUACCGGGAAGGAGCGGCCGCAAGGCCAGGUAGGUCGCUCGGUGUCGUGCUGUAAAGCACGACAA [#1 Same State - Arginine A Attempt #29 (HarryS)]	false
AUCGCACCUGGUGAUACCAGCGUUUGCUCGUGACAUGAGGAUCACCCAUGUGGCCAGUGAUGCCCUUGGCAGCAUGGUCGGUGCA [Same State - Theophylline B (Freestyle 26)]	true
AAAUAAAUACAUGAGGAUCACCCAUGUGAAGGAGCGCCCGUUAGGGCAGGUAGGUCGCACAUGAAUAACUCCGUGCAAAAGCACA [ArgEX 18 #OpenEnded]	true
AUACCUAGUGAGUCGUGUUUCUUUUCAGAUACCAGACUUUUCGUUGUCCCUUGGCAGCUGUUUUACAUGAGGAUCACCCAUGUUG [JR_ExcTheophyA_Sub007]	false
CGGUCGGUCGGCCGGUGAUUAUGGGAUGAAGGAGCGUGGGAAGCUACAGGUAGGUCGCAUCCGAAACACGAGGAUCACCCGUGUU [SSArg A #25Alt-Ms2 Mod]	false
CUUGAGACAUGAGGAUCACCCAUGUCCGAAGGAGCGUGCGAAAGCACAGGUAGGUCGCGGACGUGAGGAUCUCCCAUGUGAGCGA [#25 Exclusion - Arginine A]	false
UUGGUACAUGAGGAUCACCCAUGUACUGAAGGAGCGGGACGAAUCUCAGGUAGGUCGCAGACAUGAGGAUCACCCAUGUAUGGCU [Exclusion Arginine A GF 17]	false
AGUCGAAACUGAAGGAGCGAGAUGACAACAUUGGGUCUAACAUGAGGAUCACCCAUGUAAUCUCAGGUAGGUCGCAGUAACAAAA [Exclusion Arginine B GF 16]	true
ACGACGCAUAGUGAUACCAGUAGAACAUGAGGAUCACCCAUGUCAGAUAUGUUCUAAUACUGCCCUUGGCAGCACUAUGCGUCAG [SSTheo B #4]	true
UGACAUUGCUGCGAUACCAGACAUGAGGAUCACCCAUGUACCAAGGUACGAAAAUAACAUGUCCCUUGGCAGCGCAGCAAUGUCU [MAT - Exclusion Theophlline B - Mod of Eli - D4]	false
CUGGCAGGAUUCUCAGCUGUCAGGGCUGAUACCAGCCACGAAAGUGGCCCUUGGCAGCAGCAAACAUGAGGAUCACCCAUGUAAU [(T)''-(M)'-(T)'-(Theo)-(Ms2)_Design1]	true
AACAACAAGGGAAGGAGCGCGAAUAAUAGACAUGAGGAUCACCCAUGUAUCAUGGGAUUAACGCAGGUAGGUCGCCCACAAACAA [#07 Exclusion - Arginine B]	true
ACCUCACUCUCUGAUACCAGCUAAUAACAUGAGGAUCACCCAUGUCAGACUUGUAUUGAUAGCCCUUGGCAGCAGAGGUAACUGC [Theo B Ex t2]	false
GGGACAUGAGGAUCACCCAUGUACCGGUCCCGAGGACCGGUACGGCCGCCACUCGAUGACCUCAUAGUCUGCUGGAGCAGCAGAC [Usesedarin]	true
AUACAUGAGGAUCACCCAUGUAUAGAUGAAGGAGCGACCAGAGGGUCAGGUAGGUCGCAUCACAUGAGGAUCACCCAUGUACUUA [DOUBLE!!! :-D #9]	true
GCCGGACUUUCGGCCGCCACUGAGAGAGUCGUGUGAACAUGAGGAUCACCCAUGUAAUAUAUAUACAGGACCGGGAGGGUUCGGC [4.S]	false
GCUGCUUUGGGAAGGAGCGCUGUGGUAGUGUGGCGGACAUGAGGAUCACCCAUGUGCCUGCAGCAGGUAGGUCGCUUAGGGCAGC [EAP NP+V+V2 #16]	true

----------
Tested on: MS2 coat protein
test_protocol: apparent KD of MS2 coat protein; designed switch direction (-1 OFF switch, 1 ON switch): -1; higher = weaker reporter binding
condition_summary: Eterna round: R95; input ligand: microRNA oligo, concentration not stated
List of apparent KD of MS2 coat protein values.

residues	apparent KD of MS2 coat protein
UCGGCGCGAGGAUAUACGUUUGCGCGUUUUCGUUUGCGCGUACAUGAGGAUCACCCAUGUAGAAGGCGCGCGGC [Apr-15 SS2-13] (puzzle: Exclusion 2)	0.0115 µM
CUGGUCCGAGGAUAUAUUAAGUGAUACAUGAGGAUCACCCAUGUUAUUUAAUGGAUGUAAAUAGAAGGCGGACUAG [Mat - Exclusion 5 - JL mod - D70] (puzzle: Exclusion 5)	0.0426 µM
AGAAAUGCCCAUGGCCGCAAGCUCUUUGCUUGUCUUACCACAUGAGGAUCACCCAUGUGACAUGGGCUCCUUAUAAU [Riquarge] (puzzle: Sensor v3, turn-off variant 2)	0.00977 µM

----------
List of apparent KD of MS2 coat protein values.
Tested on: MS2 coat protein
test_protocol: apparent KD of MS2 coat protein; higher = weaker reporter binding
condition_summary: Eterna round: R107; input ligand: theophylline 20 uM

residues	system_name	apparent KD of MS2 coat protein, nM
GUGCGGUUUGAUGAUACCAGAUGUGGUGGGAACAUGAGGAUCACCCAUGUUGUGAAACAGGUCCCUUGGCAGCAUGAGUGAGCUU [TheoB-ms2@32-1]	MS2 coat protein	255
GCACCAGGUACGGAUACCAGCUGCCACAGUUACAUGAGGAUCACCCAUGUGAAAACGUGUAGCCCUUGGCAGCUGUACCUGGUGC [SSThB NP+V+V2 #8 Same Structure]	MS2 coat protein	186
AGAGUCAGACAAAAGUCUGGCUCAGCCGAAGGAGCGUCCGAAAGGACAGGUAGGUCGCGGUUGCAUGAGGAUCACCCAUGUUCCU [ArgAS 30 #OpenEnded #AlternativeMS2]	MS2 coat protein	399
ACCGAGGCAAUGGAUACCAGUGCGCCACAAUCGUGCUUCAACAUGAGGAUCACCCAUGUGCACCCUUGGCAGCCAACGGGCUCAU [theeternabot_exclusion_MS2_Theo_B_19]	MS2 coat protein	25.3
AACUGGACCAGUGAUACCAGAGACAUGAGGAUCACCCAUGUACAUGAGGAUCACCCAUGUCUCCCUUGGCAGCACAGCAGGGAGC [Exclusion Theophylline B Gf12]	MS2 coat protein	109
